Molecular target: Aurora kinase B (Homo sapiens, UniProt Q96GD4)
Sequence (Q96GD4 whole entry): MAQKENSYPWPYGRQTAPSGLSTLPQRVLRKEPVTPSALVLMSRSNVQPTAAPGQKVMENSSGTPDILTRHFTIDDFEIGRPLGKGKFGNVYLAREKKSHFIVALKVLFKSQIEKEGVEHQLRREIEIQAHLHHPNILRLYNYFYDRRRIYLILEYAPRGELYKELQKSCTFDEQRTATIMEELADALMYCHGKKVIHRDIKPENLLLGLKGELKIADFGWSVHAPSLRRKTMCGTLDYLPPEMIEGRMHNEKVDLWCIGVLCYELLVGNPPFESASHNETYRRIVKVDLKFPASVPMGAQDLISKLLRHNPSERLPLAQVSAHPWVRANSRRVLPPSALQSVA
Measured IC50 of individual entries
The reply should consist of the numeric value with the unit placed after it.

# sample_smiles, IC50
rows = [
    ("O=c1c(O)c(-c2ccc(O)c(O)c2)oc2c(O[C@@H]3O[C@H](CO)[C@@H](O)[C@H](O)[C@H]3O)c(O)cc(O)c12", "11.1 µM"),
    ("O=c1cc(-c2ccc(O)cc2)oc2cc(O)cc(O)c12", "3.96 µM"),
    ("O=c1c(O)c(-c2ccc(O[C@@H]3O[C@H](CO)[C@@H](O)[C@H](O)[C@H]3O)c(O)c2)oc2cc(O)cc(O)c12", "29.4 µM"),
    ("COc1cc(-c2oc3cc(O)ccc3c(=O)c2O)ccc1O", "2.85 µM"),
]

Now take the following compound into account.
Enter recorded IC50 with Aurora kinase B (Homo sapiens, UniProt Q96GD4) for `O=c1c(O)c(-c2ccc(O)c(O)c2)oc2cc(O)cc(O)c12` here.
3.96 µM

* * *

Reported values: pIC50 for Aurora kinase B (Homo sapiens, UniProt Q96GD4), one per item.
Schema: pIC50 number; meaning minus log10 of the concentration expressed in molar units.

// worked examples, pIC50 included
# sample_smiles, pIC50
measured = [
    ("COc1cc(-c2oc3cc(O)cc(O)c3c(=O)c2O)ccc1O", 5.36),
    ("O=c1c(O)c(-c2ccc(O)cc2)oc2cc(O)cc(O)c12", 5.39),
    ("O=c1cc(-c2ccc(O)c(O)c2)oc2cc(O)cc(O)c12", 5.41),
    ("COc1ccc(-c2oc3cc(O)cc(O)c3c(=O)c2O)cc1O", 5.13),
    ("O=c1cc(-c2ccccc2)oc2cc(O)c(O)c(O)c12", 5.39),
]

Now take the following compound into account.
Enter recorded pIC50 with Aurora kinase B (Homo sapiens, UniProt Q96GD4) for `O=c1c(O)c(-c2ccc(O)c(O)c2)oc2c(O)c(O)cc(O)c12` here.
5.39

* * *

Reported values: pIC50 for UniProtKB Q96GD4, one per item.
Schema: pIC50 number; meaning minus log10 of the concentration expressed in molar units.

// worked examples, pIC50 included
# compound, recorded_endpoint, value_observed
records = [
    ("O=c1c(O)c(-c2ccc(O)cc2O)oc2cc(O)cc(O)c12", "pIC50", 5.33),
    ("O=c1c(O)c(-c2ccccc2)oc2ccccc12 [3-hydroxy-2-phenyl-4H-chromen-4-one]", "pIC50", 5.37),
    ("O=c1c(O)c(-c2cc(O)c(O)c(O)c2)oc2cc(O)cc(O)c12", "pIC50", 5.40),
]

Please look at this compound and report its pIC50: `COc1ccc(-c2cc(=O)c3c(OC)c(OC)c(OC)cc3o2)cc1OC`
5.27
